target: Pol theta (1-899) (Homo sapiens); construct: Pol theta (1-899) (5 nM) in assay buffer; assay: Pol theta ATPase activity, NADH oxidation-coupled enzymatic assay (ATPase NADH coupling: Standard Screening: hPolQ); format: biochemical; conditions: Table 4; Pol theta (1-899) 5 nM, ATP, dT50 ssDNA
Sequence (O75417 1-899): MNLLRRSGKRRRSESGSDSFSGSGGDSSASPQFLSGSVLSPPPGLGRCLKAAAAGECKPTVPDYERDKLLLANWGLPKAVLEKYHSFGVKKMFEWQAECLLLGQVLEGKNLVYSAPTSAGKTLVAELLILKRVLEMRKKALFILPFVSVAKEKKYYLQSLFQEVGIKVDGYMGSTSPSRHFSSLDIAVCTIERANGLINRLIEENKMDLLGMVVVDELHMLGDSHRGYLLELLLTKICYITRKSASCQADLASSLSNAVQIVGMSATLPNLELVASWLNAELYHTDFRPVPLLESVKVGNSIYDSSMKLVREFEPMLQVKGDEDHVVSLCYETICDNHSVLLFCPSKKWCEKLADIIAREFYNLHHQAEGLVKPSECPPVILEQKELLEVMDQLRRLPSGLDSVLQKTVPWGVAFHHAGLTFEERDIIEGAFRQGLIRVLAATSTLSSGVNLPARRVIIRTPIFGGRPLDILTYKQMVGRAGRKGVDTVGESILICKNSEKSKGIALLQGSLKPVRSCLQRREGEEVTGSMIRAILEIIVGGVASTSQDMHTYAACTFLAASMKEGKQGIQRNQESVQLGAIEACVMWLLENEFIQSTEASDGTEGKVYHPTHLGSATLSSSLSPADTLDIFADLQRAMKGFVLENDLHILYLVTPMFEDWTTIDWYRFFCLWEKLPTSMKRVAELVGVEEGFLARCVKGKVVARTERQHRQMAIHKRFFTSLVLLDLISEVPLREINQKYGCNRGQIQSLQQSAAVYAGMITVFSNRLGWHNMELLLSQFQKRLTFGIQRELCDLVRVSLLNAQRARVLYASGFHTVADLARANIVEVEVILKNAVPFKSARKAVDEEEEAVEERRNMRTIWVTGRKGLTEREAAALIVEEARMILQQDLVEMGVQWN
VALUE_TYPE: IC50

Here is how some compounds turned out for IC50.
COc1cccc(F)c1-c1cc(C)ncc1C(=O)Nc1nnc(OCC(C)(C)C(F)(F)F)s1	200 to 500 nM
COc1nnc(NC(=O)c2cnc(C)cc2-c2c(C)n[nH]c2C)s1	1000 to 10000 nM
COc1nnc(NC(=O)c2cnc(C)cc2-c2cc(Cl)ccc2OC)s1	≤ 200 nM
COc1cnc(Cl)cc1-c1cc(C)ncc1C(=O)Nc1nnc(OC(C)C)s1	≤ 200 nM
COc1nnc(NC(=O)c2cnc(C)cc2-c2c(F)cccc2OC(F)F)s1	≤ 200 nM

**Q:** Give recorded IC50. COc1nnc(NC(=O)c2cnc(C)cc2-c2cc([C@H](C)O)ncc2OC)s1 (single isomer, unassigned)
**A:** 1000 to 10000 nM

* * *

Please go through the items and note down their IC50.
molecular target: Pol theta (1-899) (Homo sapiens); construct: Pol theta (1-899) (5 nM) in assay buffer; assay: Pol theta ATPase activity, NADH oxidation-coupled enzymatic assay (ATPase NADH coupling: Standard Screening: hPolQ); type: biochemical; conditions: Pol theta (1-899) 5 nM, NADH oxidation-coupled ATPase assay; compounds of Table 3

COc1cnc(C)c(F)c1-c1cc(C)ncc1C(=O)Nc1nnc(O[C@@H]2CCC[C@@H](O)C2)s1 (single isomer, unassigned)	≤ 200 nM
COc1nnc(NC(=O)c2cnc(C)cc2-c2cc(Cl)c([S+](C)[O-])cc2OC)s1 (single isomer, unassigned) [Example 277]	≤ 200 nM
COc1nnc(NC(=O)c2cnc(C)cc2-c2ccc3c(c2)CC(=O)N3)s1	1000 to 10000 nM

Batch request: IC50 per item, same order as input.
1. COc1nnc(NC(=O)c2cnc(C)cc2-c2cc(F)cc(F)c2)s1
2. COc1nnc(NC(=O)c2cnc(C)cc2-c2ccc3ccccc3c2)s1

**A:**
["500 to 1000 nM", "500 to 1000 nM"]

Go through the items and report each one's IC50.
1. COc1nnc(NC(=O)c2cnc(C)cc2-c2cc(C)c([S@+](C)[O-])cc2OC)s1 (single isomer, unassigned)
2. COc1nnc(NC(=O)c2cnc(C)cc2-c2cc[nH]c(=O)c2)s1
3. COc1nnc(NC(=O)c2cnc(C)cc2-c2cccc(C(=O)NC3CC3)c2)s1

**A:**
["200 to 500 nM", "1000 to 10000 nM", "1000 to 10000 nM"]

Record IC50 for all entries; do not skip any.
1. COc1cnc(Cl)cc1-c1cc(C)ncc1C(=O)Nc1nnc(O[C@@H]2C[C@H](F)CN(C(C)C)C2)s1 (single isomer, unassigned)
2. COc1cnc(C)cc1-c1cc(C)ncc1C(=O)Nc1nnc(OC2COCC2NCC2CC2)s1 (centres unmarked)
3. COc1nnc(NC(=O)c2cnc(C)cc2-c2ccc3c(c2)OC(F)(F)O3)s1
4. COc1nnc(NC(=O)c2cnc(C)cc2-c2cccc(O)c2)s1

**A:**
1: 200 to 500 nM; 2: ≤ 200 nM; 3: 1000 to 10000 nM; 4: 1000 to 10000 nM

These data points were gathered from patent US20240287080A1.
